Target under test: T1, 285bZIP E306G (human, UniProt P16220-1 285-339, C300S;C310S;C337S;E306G)
T1 sequence: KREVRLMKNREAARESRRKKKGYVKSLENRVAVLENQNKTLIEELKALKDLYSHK
Experiment: stopped-flow fluorescence (koff/kon); 10 mM Mg2+; 10 mM MES pH 6.5, 150 mM NaCl, 10 mM MgCl2, 0.05% Tween-20, 25 C; NMR: 10 mM Tris-d11, 150 mM NaCl, 10 mM MgCl2, 1 mM NaN3, 5% D2O (NOE at 25 C)
Study conditions: protein: recombinant; tags: extra N-terminal Gly; chain copies: 2; label: 5' Alexa Fluor 488; hairpin (self-annealing, 11 bp stem, CCCC loop)
Parameter measured: Kd

[Q] Value lookup for Kd; key = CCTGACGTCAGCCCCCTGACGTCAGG (structured_DNA) [AlexaFluor488-CREh]
[A] 3.9 nM
